Tested on: 633275-114-R-J1-PDC complex spheroids, viability
assay.method.text: Anticancer human tumor 633275-114-R-J1-PDC patient-derived endometrial adenocarcinoma cell line growth inhibition [GQUAD]
protocol.conditions: second compound 10 µM; first compound 3.16 µM; stronger effect = lower value
measured.quantity: viability, T/C (%)

compound	obs.value
CC1COCCN1c1cc(-c2ccnn2C)c2ccnc(-c3ccn[nH]3)c2n1 (stereo not drawn) + Cc1cnc(CNC(=O)c2c(=O)c3ccc(N4CCCN(C)CC4)nc3n3c2sc2ccccc23)cn1	14.4
COc1ccc([C@@H](O)c2cc(-c3ncnc4cc(N5CCOCC5)ccc34)c(F)cc2Cl)nn1 + Cc1[nH]c2ccc(F)cc2c1-c1nc2c3cccnc3c3ncccc3c2[nH]1	42.3
COc1cc(C2c3cc4c(cc3C(OC3OC5COC(C)OC5C(O)C3O)C3COC(=O)C23)OCO4)cc(OC)c1O (stereo not drawn) + Cc1cnc(CNC(=O)c2c(=O)c3ccc(N4CCCN(C)CC4)nc3n3c2sc2ccccc23)cn1	27.2

---

System: 633275-114-R-J1-PDC complex spheroids, viability
assay.method.text: Anticancer human tumor 633275-114-R-J1-PDC cell line growth inhibition [GQUAD];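 note: spheroids exposed to the agents for seven days; percent of DMSO vehicle control viability which is 100%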
protocol.conditions: second compound 1 µM; first compound 0.0999 µM; stronger effect = lower value
Mark yes (1) only for viability, T/C values smaller than 40%; exact matches and larger values are no (0).

compound	subject.of.test	assigned.label
CCc1c2c(nc3ccc(O)cc13)-c1cc3c(c(=O)n1C2)COC(=O)[C@]3(O)CC + Cc1cnc(CNC(=O)c2c(=O)c3ccc(N4CCCN(C)CC4)nc3n3c2sc2ccccc23)cn1	633275-114-R-J1-PDC complex spheroids, viability	yes (1)
Cc1[nH]c2ccccc2c1CCNCc1ccc(/C=C/C(=O)NO)cc1 + Cc1[nH]c2ccc(F)cc2c1-c1nc2c3cccnc3c3ncccc3c2[nH]1	633275-114-R-J1-PDC complex spheroids, viability	no (0)
Cc1[nH]c2ccccc2c1CCNCc1ccc(/C=C/C(=O)NO)cc1 + Cc1cnc(CNC(=O)c2c(=O)c3ccc(N4CCCN(C)CC4)nc3n3c2sc2ccccc23)cn1	633275-114-R-J1-PDC complex spheroids, viability	yes (1)
Cn1ncnc1[C@H]1c2n[nH]c(=O)c3cc(F)cc(c23)N[C@@H]1c1ccc(F)cc1 + Cc1[nH]c2ccc(F)cc2c1-c1nc2c3cccnc3c3ncccc3c2[nH]1	633275-114-R-J1-PDC complex spheroids, viability	no (0)
CCc1c2c(nc3ccc(O)cc13)-c1cc3c(c(=O)n1C2)COC(=O)[C@]3(O)CC + CN(C)c1ccc(Nc2c3ccc(NC(=O)CCN4CCCC4)cc3nc3cc(NC(=O)CCN4CCCC4)ccc23)cc1	633275-114-R-J1-PDC complex spheroids, viability	yes (1)
Cc1[nH]c2ccccc2c1CCNCc1ccc(/C=C/C(=O)NO)cc1 + CN(C)c1ccc(Nc2c3ccc(NC(=O)CCN4CCCC4)cc3nc3cc(NC(=O)CCN4CCCC4)ccc23)cc1	633275-114-R-J1-PDC complex spheroids, viability	yes (1)
CC[C@@]1(O)C(=O)OCc2c1cc1n(c2=O)Cc2cc3c(CN(C)C)c(O)ccc3nc2-1 + CN(C)c1ccc(Nc2c3ccc(NC(=O)CCN4CCCC4)cc3nc3cc(NC(=O)CCN4CCCC4)ccc23)cc1	633275-114-R-J1-PDC complex spheroids, viability	yes (1)
Cn1ncnc1[C@H]1c2n[nH]c(=O)c3cc(F)cc(c23)N[C@@H]1c1ccc(F)cc1 + CN(C)c1ccc(Nc2c3ccc(NC(=O)CCN4CCCC4)cc3nc3cc(NC(=O)CCN4CCCC4)ccc23)cc1	633275-114-R-J1-PDC complex spheroids, viability	no (0)
